FYI, the data here is from PubChem BioAssay (NCI).

# Tested on: OVCAR-8 ovarian
# test protocol: NCI-60 one-dose screen, 48 h
# condition info: 10 µM unless noted
Compounds without any hit were thinned out: in the full panel of roughly 83,000, 20% have a hit. The source made the active and inactive calls. How the source made its calls: active means growth percent below 10; inactive means the rest.
Returns: one label drawn from active, inactive

compound: Cc1cc(Cl)ccc1Nc1nc(C(F)(F)F)ccc1C(=O)N/N=C/c1ccc(Cl)cc1
category: inactive
//
compound: Cc1ccc2nc3c(n2c1)C(=O)C(=O)c1ccccc1-3
category: active
//
compound: COCCOCCOCCOCCOc1ccc2c(c1)C(=O)c1nc3ncccc3c(=O)n1-2
category: active

Record lookup: outcome of this test for `COc1ccccc1-n1c(-c2ccc(O)cc2C)cn2c3c(=O)[nH]c(=O)n(C)c3nc12` ?
inactive
